target: human GnRH receptor (Homo sapiens, UniProt P30968); assay: Test for GnRH receptor antagonistic effect (inhibition of 125I-D-Trp6-LHRH binding); settings: Table 2; read-out: IC50 (GnRH receptor binding), SO2-R3 compounds versus comparative CO-R3 compounds
Sequence (P30968 whole entry): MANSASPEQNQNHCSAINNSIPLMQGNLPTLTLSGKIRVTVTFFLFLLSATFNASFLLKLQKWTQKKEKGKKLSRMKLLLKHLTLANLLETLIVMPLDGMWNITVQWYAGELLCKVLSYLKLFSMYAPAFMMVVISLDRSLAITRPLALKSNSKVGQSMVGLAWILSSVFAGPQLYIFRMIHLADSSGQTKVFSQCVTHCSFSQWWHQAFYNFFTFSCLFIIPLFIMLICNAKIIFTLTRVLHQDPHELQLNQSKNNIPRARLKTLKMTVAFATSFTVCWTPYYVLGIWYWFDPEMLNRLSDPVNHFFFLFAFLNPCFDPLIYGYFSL
reported_property: pIC50
API: returns pIC50 as number; meaning -log10 of concentration in mol/L.

Consider the reported pIC50 for these compounds:
- compound: "CC(=O)NC(N)=NS(=O)(=O)c1cccc(C(=O)C(C(=O)c2cc(F)cc(F)c2)=C2Nc3ccccc3N2)c1"
  pIC50: 9.25
- compound: "O=C(C(C(=O)c1cccc(S(=O)(=O)NCCO)c1)=C1Nc2ccccc2N1)c1cc(F)cc(F)c1"
  pIC50: 10.18
- compound: "CC(=O)NC(N)=NC(=O)c1cccc(C(=O)C(C(=O)c2cc(F)cc(F)c2)=C2Nc3ccccc3N2)c1 [Comparative Example 3, reference compound]"
  pIC50: 7.80
- compound: "CC(=N)NC(=O)c1cccc(C(=O)C(C(=O)c2cc(F)cc(F)c2)=C2Nc3ccccc3N2)c1 [compound 1, reference compound]"
  pIC50: 8.15
- compound: "O=C(NCCO)c1cccc(C(=O)C(C(=O)c2cc(F)cc(F)c2)=C2Nc3ccccc3N2)c1 [compound 4, reference compound]"
  pIC50: 8.02
- compound: "NC(N)=NS(=O)(=O)c1cccc(C(=O)C(C(=O)c2cc(F)cc(F)c2)=C2Nc3ccccc3N2)c1"
  pIC50: 10.66

Turning now to a further record.
[in] Which measured pIC50 belongs to CC(=N)NS(=O)(=O)c1cccc(C(=O)C(C(=O)c2cc(F)cc(F)c2)=C2Nc3ccccc3N2)c1 , tested on human GnRH receptor (Homo sapiens, UniProt P30968)?
[out] 10.28

* * *

molecular target: human GnRH receptor (Homo sapiens, UniProt P30968); experiment: Test for GnRH receptor antagonistic effect (inhibition of 125I-D-Trp6-LHRH binding); conditions: Table 1; read-out: IC50 (concentration that inhibits 50% of the binding of 125I-D-Trp6-LHRH to a human GnRH receptor)
Reported IC50 values follow for various molecules
Could you write the number and then its unit?

Consider the reported IC50 for these molecules:
- molecule: "CC(C)(O)C(=N)NS(=O)(=O)c1cc(C(=O)C(C(=O)c2cccc(F)c2)=C2Nc3ccccc3N2)ccc1F [Example 662]"
  IC50: "0.24 nM"
- molecule: "CC(=N)NS(=O)(=O)c1cccc(C(=O)C(C(=O)c2cccc(F)c2)=C2Nc3ccccc3N2)c1 [Example 245]"
  IC50: "0.058 nM"
- molecule: "C[C@@H](O)C(=N)NS(=O)(=O)c1cc(C(=O)C(C(=O)c2cccc(F)c2)=C2Nc3ccccc3N2)ccc1F [Example 696]"
  IC50: "0.18 nM"

Turning now to a further record.
[in] Requested read-out: IC50. Entry: CC(C)(O)C(=N)NS(=O)(=O)c1cccc(C(=O)C(C(=O)c2cccc(F)c2)=C2Nc3ccccc3N2)c1 [Example 211]
[out] 0.094 nM
